Protocol summary: Particle size, PDI and zeta potential of mRNA-loaded lipid nanoparticles (Malvern Zetasizer nano)
Assay type: physicochemical
Test context: Table 3 batch; luciferase mRNA LNP prepared as Example 20
Readings of PDI for the listed molecules
// return a plain number; no unit text

Molecule	PDI
CCCCCCCCC(CCCCCCCC)C(=O)OCCCCCCCN(CCO)CCCCCCCOC(=O)C(C)CSCCCCCC (centres unmarked)	0.15
CCCCCCCCC(CCCCCCCC)OC(=O)CCCCCCCN(CCO)CCCCCCCOC(=O)C(C)COCCCCCC (centres unmarked)	0.10
CCCCCCCCC(CCCCCCCC)C(=O)OCCCCCCCN(CCO)CCCCCCCOC(=O)C(C)COCCCCCC (centres unmarked)	0.11

Recorded PDI for CCCCCCCCC(CCCCCCCC)OC(=O)CCCCCCCN(CCO)CCCCCCCOC(=O)C(C)CSCCCCCC (centres unmarked) , please?
0.11

Recorded PDI for CCCCCCCCSCC(C)C(=O)OCCCCCN(CCO)CCCCCCCOC(=O)C(CCCCCCCC)CCCCCCCC (centres unmarked) , please?
0.10

Recorded PDI for CCCCCCCCOCC(C)C(=O)OCCCCCN(CCO)CCCCCCCC(=O)OC(CCCCCCCC)CCCCCCCC (centres unmarked) , please?
0.15

Recorded PDI for CCCCCCCCSCC(C)C(=O)OCCCCCN(CCO)CCCCCCCC(=O)OC(CCCCCCCC)CCCCCCCC (centres unmarked) , please?
0.14

Recorded PDI for CCCCCCCCOCC(C)C(=O)OCCCCCN(CCO)CCCCCCCOC(=O)C(CCCCCCCC)CCCCCCCC (centres unmarked) , please?
0.20

Every entry's value here was drawn from patent US12325676B2.
